The following compounds are shown together with reported TGI values.
test system: MALME-3M melanoma; assay: NCI tumour cell line growth inhibition, 48 h
READOUT_NAME: TGI

                                   compound      system_tested  readout_name  value_reported
0  Nc1c(C(=O)Nc2cccc(Br)c2)sc2nc3c(cc12)C(=O)CCC3  MALME-3M melanoma           TGI        > 100 µM
1  O=C1NN=C2C=C(c3ccc(Cl)cc3)CC(c3cccc(Cl)c3)C12 (stereo unspecified)  MALME-3M melanoma           TGI        > 100 µM
2  O=c1[nH]c(=O)n(C2CC(O)C(CO)O2)cc1CO (stereo unspecified)  MALME-3M melanoma           TGI        > 100 µM
3  COc1cc(C2SCC(=O)N2c2ccc(Cl)c(Cl)c2)cc(OC)c1OC (stereo unspecified)  MALME-3M melanoma           TGI        > 100 µM
4  O=c1c2c(-c3ccccc3)onc2n(-c2ccccc2)c(=O)n1-c1ccccc1  MALME-3M melanoma           TGI         34.5 µM
5  Cc1csc(Nc2nc(-c3cccc(Br)c3)nc(C(Cl)(Cl)Cl)n2)n1  MALME-3M melanoma           TGI        > 100 µM

---

tested on: SF-268 CNS; test: NCI tumour cell line growth inhibition, 48 h
READOUT_NAME: TGI

COMPOUND	READOUT_NAME	VALUE_REPORTED
C[C@H]1NC(=O)C2CCCCN2C(=O)CN(C)C(=O)CNC(=O)C2CCCCN2C(=O)[C@@H](NC(=O)c2nc3ccccc3cc2O)[C@@H](C)NC(=O)C2CCCCN2C(=O)CN(C)C(=O)CNC(=O)[C@@H]2CCCCN2C(=O)C1NC(=O)c1nc2ccccc2cc1O (stereo partly drawn)	TGI	0.934 µM
CCOC(=O)C(C)(C)Oc1ccc2c(C)c(-c3ccc(Cl)cc3)c(=O)oc2c1	TGI	> 100 µM
CC1(C)OC(=C(C#N)C#N)C(C#N)=C1/C=C/c1ccncc1	TGI	6.5 µM
CCOC(=O)C(=Cc1cccc(Cl)c1)C(=O)OCC	TGI	7.96 µM
Nc1nc2c(ncn2Cc2ccc(CO)cc2)c(=O)[nH]1	TGI	> 100 µM
CN(C)/C=N/n1c2ccccc2c2ccccc21	TGI	> 100 µM
Cc1c(O)c(C)c2c(C)cn(C(=O)C(C)(C)C)c2c1C	TGI	> 100 µM
O=C(CSc1nnc(-c2ccc(N=Cc3ccc(Cl)cc3)cc2)o1)Nc1ccc(Cl)cc1	TGI	> 100 µM
CC#C[P+](c1ccccc1)(c1ccccc1)c1ccccc1	TGI	8.44 µM
O=S(=O)(O)c1ccc(N=Nc2ccc(N=Nc3c(O)ccc4ccccc34)cc2)cc1	TGI	> 100 µM
COc1cc2c(cc1O)C1C(O)C(O)C=C3CCN(C2)C31 (stereo not drawn)	TGI	10.5 µM
O=[N+]([O-])c1ccc(-n2nnc(C3=NCCN3)c2-c2ccc(Cl)cc2)cc1	TGI	> 100 µM
O=C1[C@@H]2C3c4ccccc4C([C@@H]2C(=O)N1c1ccccc1)S3(=O)=O	TGI	> 100 µM

---

system: NCI-H522 lung; experiment: NCI tumour cell line growth inhibition, 48 h
Please use condition met whenever TGI is not below 20 µM, and condition not met whenever it is.

COMPOUND	SYSTEM_TESTED	CLASS_ASSIGNMENT
O=C(CC(=O)c1ccccc1)CC(O)(c1ccccc1)c1ccccc1	NCI-H522 lung	condition not met
CC(C)(C)c1cc(C(=O)/C=C/C=C/c2ccccc2)cc(C(C)(C)C)c1O	NCI-H522 lung	condition met
CC(=O)n1c2c(c(=O)n1-c1ccccc1)S(=O)CCC2 (stereo not given)	NCI-H522 lung	condition not met
O=c1c2c(-c3ccccc3)onc2n(-c2ccccc2)c(=O)n1-c1ccccc1	NCI-H522 lung	condition met
CCOC(=O)C1(c2ccccc2)CCC(=O)CC1	NCI-H522 lung	condition met
Cn1c(N)c2c3c(sc2nc1=O)CCCC3	NCI-H522 lung	condition met
COc1cc(CNCCCN2C(=O)c3ccc4c5c(ccc(c35)C2=O)C(=O)N(CCCNCc2cc(OC)c(OC)c(OC)c2)C4=O)cc(OC)c1OC	NCI-H522 lung	condition not met
COc1ccc(C(=O)/C=C/c2ccncc2)cc1OC	NCI-H522 lung	condition met
CC[C@]1(Cc2ccc(OC)c(OC)c2)[C@@H]2C[C@@H](C3OCCO3)ON2O[C@H](OC2CCCC2(c2ccccc2)c2ccccc2)[C@@H]1OC(C)=O (stereo not given in full)	NCI-H522 lung	condition met
Cc1cccc(C(C)C)c1NC(=O)CC1Sc2ccccc2NC1=O (stereo not given)	NCI-H522 lung	condition met

The reported measurements were obtained from PubChem BioAssay (NCI).
